For each record, write down the corresponding Herbicidal action against [%] PHBPU.
# System: PHBPU
# experiment summary: Post-emergence herbicidal action against PHBPU
# Assay type: in vivo, Pharbitis purpurea
# study conditions: application rate 80 g/ha, rated visually about 3 weeks after treatment
Answers are plain numbers, in %.

Need Herbicidal action against [%] PHBPU for each of these compounds.
1. CCOC(=O)[C@@H]1C=C[C@H](NC(=O)C2(OC)CC(c3cc(F)cc(F)c3)=NO2)C1 (some centres unmarked)
2. N#Cc1cccc(C2=NOC(C(=O)NC3C=CC(C(=O)O)C3)(C(F)(F)F)C2)c1 (mixture of isomers)
3. COCCOC(=O)C1C=CC(NC(=O)C2(C(F)(F)F)CC(c3cccc(C#N)c3)=NO2)C1 (mixture of isomers)
4. N#Cc1cccc(C2=NOC(C(=O)NC3C=CC(C(=O)OCCCl)C3)(C(F)(F)F)C2)c1 (mixture of isomers)
5. C=CC1(C(=O)NC2C=CC(C(=O)OCc3ccccc3)C2)CC(c2cc(F)cc(F)c2)=NO1 (mixture of isomers)
6. O=C(OCCCl)C1C=CC(NC(=O)C2(C(F)(F)F)CC(c3cc(F)cc(F)c3)=NO2)C1 (mixture of isomers)

Completion:
1. 80
2. 90
3. 80
4. 90
5. 80
6. 80

Need Herbicidal action against [%] PHBPU for each of these compounds.
1. CC1(C(=O)NC2CC=C(C(=O)NS(C)(=O)=O)C2)CC(c2cccc(F)c2)=NO1 (mixture of isomers)
2. C[C@]1(C(=O)N[C@@H]2C=C(C(=O)O)CC2)CC(c2cc(F)cc(F)c2)=NO1

Completion:
80
90
